- experimentalConditions: in acetone, 303.15 K
measuredProperty: solubility (mole fraction)
Output: the number by itself.

Problem: I have this compound here, `NC(=O)c1ccccc1` , and I need its recorded solubility (mole fraction).
Solution: 0.0948

###

- experimentalConditions: in acetonitrile, 283.15 K
measuredProperty: solubility (mole fraction)
Output: the number by itself.

Problem: I have this molecule here, `NC(=O)c1ccccc1` , and I need its recorded solubility (mole fraction).
Solution: 0.0162

###

- experimentalConditions: in n-butanol, 313.15 K
measuredProperty: solubility (mole fraction)

Problem: I have this molecule here, `NC(=O)c1ccccc1` , and I need its recorded solubility (mole fraction).
Solution: 0.0787
